Tested on: OVCAR-8 ovarian
Experiment: NCI tumour cell line growth inhibition, 48 h
Entries and their measured TGI follow.

{"molecule": "COc1cc(C2C(Cl)C(=O)N2n2cnc3ccccc3c2=O)cc(OC)c1OC (configuration not stated)", "TGI": "> 100 µM"}
{"molecule": "CC(=O)Oc1c(C)cc(-c2cc(C)c(OC(C)=O)c(C)c2)cc1C", "TGI": "> 100 µM"}
{"molecule": "COC(=O)Nc1nc2ccc(C(=O)c3ccc[nH]3)cc2[nH]1", "TGI": "> 100 µM"}
{"molecule": "N=C(/C=C/c1ccc(-c2cn3cc(/C=C/C(=N)N4CCCC4)ccc3n2)cc1)N1CCCC1", "TGI": "> 100 µM"}
{"molecule": "Cc1ccc(-c2sc(-c3ccc(C)cc3)c3c2C2CCC3C2)cc1", "TGI": "> 50 µM"}
{"molecule": "OB([O][Hg][c]1ccccc1)[O][Hg][c]1ccccc1", "TGI": "3.53 µM"}
{"molecule": "Nc1nc(N)[n+]([O-])c(N)c1NCO", "TGI": "> 100 µM"}
{"molecule": "O=C(Nc1n[nH]c2nc(-c3ccco3)c(Br)cc12)C1CC1", "TGI": "> 25 µM"}
{"molecule": "CCOC(=O)C1(Cc2ccccc2)Cc2cc3c(cc2C1)CCC3", "TGI": "> 100 µM"}
{"molecule": "Cc1ccc(S(=O)(=O)NC(=O)NC(CO)C(=O)O)cc1 (configuration not stated)", "TGI": "> 100 µM"}
{"molecule": "O=C(Cc1ccccc1)NN1C(=O)C(Cl)C1c1cccc(O)c1 (configuration not stated)", "TGI": "35.1 µM"}
{"molecule": "Cc1ccc(S(=O)(=O)N/N=C/C(Br)=C(/Br)C(=O)O)cc1", "TGI": "9.93 µM"}
{"molecule": "Cc1cc(NC(=O)C2c3ccccc3C(=O)N(CC(C)C)C2c2cccs2)no1 (configuration not stated)", "TGI": "> 100 µM"}
{"molecule": "C[C@@H](c1ccc2nccn2c1)n1nnc2ncc(-c3cnn(C)c3)nc21", "TGI": "> 100 µM"}
{"molecule": "N[C@H]1C2C3CC4C5CC(C42)C1(c1ccccc1)C53 (some centres not stated)", "TGI": "> 100 µM"}
{"molecule": "CC1(C)N=C(N)N=C(N)N1c1cccc(/C=C/C=C/c2cccc([N+](=O)[O-])c2)c1", "TGI": "30 µM"}
{"molecule": "Cn1ncc2cc3c(Nc4ccc(Cl)cc4)cccc3nc21", "TGI": "76.1 µM"}
{"molecule": "N#Cc1ncn(-c2ccccc2)c1N", "TGI": "> 100 µM"}
{"molecule": "CC(=O)Oc1ccccc1[C@H]1CC(=O)C[C@H](c2ccccc2OC(C)=O)C12C(=O)c1ccccc1C2=O", "TGI": "> 100 µM"}
{"molecule": "NC(N)=NC(CC(=O)O)c1ccccc1 (configuration not stated)", "TGI": "> 100 µM"}
{"molecule": "C/C(=N\\NC(=S)Nc1ccc(C(=O)O)cc1)c1ccccn1", "TGI": "45.5 µM"}
{"molecule": "CCCCCCCCCCCCc1ccc(C(=O)/C=C/C(=O)O)cc1", "TGI": "12.9 µM"}
{"molecule": "CC1=COC(=O)c2ccccc2N1", "TGI": "> 100 µM"}
{"molecule": "CC[C@@H](CCCC[C@@H]1CC[C@H]2CC(=O)C[C@@H]12)OC", "TGI": "> 100 µM"}
{"molecule": "CCOC(=O)c1cccc(=O)c(C(=O)OCC)c1", "TGI": "> 100 µM"}
{"molecule": "O=[N+]([O-])c1ccc(-c2ccc(/C=N/n3c(-c4ccc(Cl)cc4)n[nH]c3=S)o2)cc1", "TGI": "> 100 µM"}
{"molecule": "COC(=O)c1cnc(=O)n(C2CC(O)C(CO)O2)c1 (configuration not stated)", "TGI": "> 100 µM"}
